The origin of these recorded values is PubChem BioAssay (NCI).

Test system: TK-10 renal
MEASUREMENT_PROTOCOL: NCI-60 one-dose screen, 48 h
EXPERIMENTAL_CONTEXT: 10 µM unless noted
This is part of a sample that, as a whole, favours compounds with a hit. Of some 83,000 tested, about 20% had one in any assay. Activity calls are given as the source filed them. Rule for the calls: active = growth percent below 10; inactive = the rest.
Pick one: active, inactive

Prompt: Each compound tested received a call. Report the one for CCN1c2ccccc2C(Cl)(c2ccc(N(C)C)cc2)c2ccccc21 .
Completion: inactive

Prompt: Each compound tested received a call. Report the one for C=C(C)[C@@H]1CC[C@]2(C(=O)NCCNCCNC(=O)OC(C)(C)C)CC[C@]3(C)[C@H](CC[C@@H]4[C@@]5(C)CCC(=O)C(C)(C)[C@@H]5CC[C@]43C)[C@@H]12 .
Completion: inactive

Prompt: Each compound tested received a call. Report the one for Cc1cnc(N)nc1OCC(C)(C)CNC(=O)c1cccc(-c2ccc(S(=O)(=O)Nc3ccc4c(c3)N(C(=O)C3CC3)CCC4)cc2)c1 .
Completion: inactive

Prompt: Each compound tested received a call. Report the one for O=C(O)c1cc([N+](=O)[O-])ccc1Br .
Completion: inactive

Prompt: Each compound tested received a call. Report the one for O=C1Nc2ccccc2/C1=C/C(=O)c1ccc(N2CCCC2)cc1 .
Completion: inactive

Prompt: Each compound tested received a call. Report the one for Cc1ccc(S(=O)(=O)N/N=C2\CC3CCC2(C)C3(C)C)cc1 (centres undefined) .
Completion: inactive

Prompt: Each compound tested received a call. Report the one for CCN(CC)CCCCCCNc1cccc2cc(Br)cnc12 .
Completion: inactive

Prompt: Each compound tested received a call. Report the one for CC(C)C1=NOC(=O)C1=Cc1cn(-c2cccnc2)nc1-c1ccccc1 .
Completion: inactive

Prompt: Each compound tested received a call. Report the one for Oc1c(CNCCNCc2cc(Cl)cc(Cc3ccccc3)c2O)cc(Cl)cc1Cc1ccccc1 .
Completion: inactive

Prompt: Each compound tested received a call. Report the one for CCOC(=O)c1cc(C(=O)c2ccc(OC)c(OC)c2)n2ccc(-c3ccccn3)cc12 .
Completion: inactive

Prompt: Each compound tested received a call. Report the one for COc1cc2c(c(OC)c1OC)-c1ccc(NNC(N)=S)c(=O)cc1[C@@H](NC(C)=O)CC2 .
Completion: inactive

Prompt: Each compound tested received a call. Report the one for CC(C)=CCC[C@](C)(O)[C@H]1CC[C@]2(C)[C@@H]1CC[C@@H]1[C@@]3(C)CC[C@H](OC(=O)CCC(=O)O)C(C)(C)[C@@H]3CC[C@]12C .
Completion: inactive

Prompt: Each compound tested received a call. Report the one for Cc1ccc2c(c1)C(C)Cc1c(Cl)ncnc1N2C (centres undefined) .
Completion: inactive

Prompt: Each compound tested received a call. Report the one for O=C(Nc1cccc2cccnc12)c1cc(C(=O)c2ccc(Cl)cc2)n2ccc(-c3ccncc3)cc12 .
Completion: inactive

Prompt: Each compound tested received a call. Report the one for O=C1/C(=C/c2cccc(OCc3ccccc3)c2)Oc2cc(OCCN3CCCCC3)ccc21 .
Completion: inactive

Prompt: Each compound tested received a call. Report the one for Clc1ccc2nc(-c3ccc(-c4ccc(/C=N/NC5=NCCN5)cc4)s3)cn2c1 .
Completion: inactive

Prompt: Each compound tested received a call. Report the one for COc1ccc(C=C2c3ccccc3-c3ccccc32)cc1 .
Completion: inactive

Prompt: Each compound tested received a call. Report the one for CC1(C)CC[C@]2(C(=O)O)CC[C@]3(C)C(=CC[C@@H]4[C@@]5(C)C/C(=C/c6ccco6)C(=O)C(C)(C)[C@@H]5CC[C@]43C)[C@@H]2C1 .
Completion: active

Prompt: Each compound tested received a call. Report the one for CC(C)CCSC1=CC(=O)c2ccccc2C1=O .
Completion: inactive
